Reference for the values: ChEMBL document CHEMBL6087395

# MEASURED ON: Melanocortin receptor 5 (Homo sapiens, UniProt P33032)
# Sequence (P33032 whole entry): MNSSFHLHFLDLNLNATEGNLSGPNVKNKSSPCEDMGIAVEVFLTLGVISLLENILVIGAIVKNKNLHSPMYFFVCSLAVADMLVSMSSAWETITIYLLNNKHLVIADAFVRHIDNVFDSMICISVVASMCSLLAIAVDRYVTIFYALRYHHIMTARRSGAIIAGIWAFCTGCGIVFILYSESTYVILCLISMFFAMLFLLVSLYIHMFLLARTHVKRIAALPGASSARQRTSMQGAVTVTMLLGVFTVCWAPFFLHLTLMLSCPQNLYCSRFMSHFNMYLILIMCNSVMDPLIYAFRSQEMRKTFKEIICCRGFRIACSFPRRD
# ASSAY PROTOCOL: Antagonist activity at human MC5 receptor expressed in HEK293 cells assessed as inhibition of ACTH-induced cAMP accumulation measured after 70 mins incubation by fluorescence analysis
Please respond with reported pEC50 for every item in the list.
Answers are plain numbers, as −log10 of the molar value.

# count of solved cases: 3
COMPOUND | READOUT NUMBER
O=C(NCC(F)F)C(C1CC2(C1)CC21CCC1)N(C(=O)c1cc2c(cn1)CCCC2)[C@H]1C[C@@H](N2CCCC2)C1 (some centres undefined) | 3.99
COc1cc(C)c(-c2c(C)c(C)c(C(=O)NCC3CCCN3CCCO)c(C)c2C)cc1C (centres undefined) | 3.82
O=C1NCCOc2ccc(CNCC3(c4ccc(C=C5CCSCC5)s4)CCC3)cc21 | 4.51

We now examine a further compound.
Request: Request the reported pEC50 associated with `Cc1ccc(-c2cc(Cl)cs2)cc1C1(C(=O)NC2CN(C3CCC3)C2)CC1`
Response: 4.80
